Below: a set of entries, each annotated with reported IC50.
- measurementTarget: Lck (Homo sapiens, UniProt P06239)
- Construct: Kinases are expressed as either kinase domains or full length constructs; made in house
- assayInfo: Kinase inhibition assay (33P transfer), Lck
- Type: biochemical
- details: read-out: Lck-1

Consider the reported IC50 for these molecules:
COc1cc(Nc2ncnc(Nc3ccc4c(cnn4Cc4ccccc4)c3)n2)cc(OC)c1OCCN1CCOCC1 [Compound 559]: < 0.687 µM
COc1cc(Nc2ncnc(-n3c(NC(C)(C)c4ccccc4)nc4ccccc43)n2)cc(OC)c1OC [Compound 569]: < 0.782 µM
Cc1ccc2c(c1)CCCN2c1ncnc(Nc2ccc3c(c2)C(=O)OC3)n1 [Compound 763]: 6.43 to 9.37 µM
O=c1[nH]c2ccccc2n1-c1ncnc(Nc2ccncn2)n1 [Compound 492]: > 14.7 µM
CC(=O)c1ccc(Nc2ncnc(Nc3ccc4c(cnn4Cc4ccccc4)c3)n2)cc1 [Compound 730]: 5.51 to 8.04 µM

# input Specify the recorded IC50 for Clc1ncnc(Nc2cc(-c3ccccc3)n[nH]2)n1 [Compound 976] , system: Lck (Homo sapiens, UniProt P06239).
# output > 16.5 µM

# input Specify the recorded IC50 for COc1cc(Nc2ncnc(-n3c(NCc4ccc(C)cc4)nc4ccccc43)n2)cc(OC)c1OC [Compound 516] , system: Lck (Homo sapiens, UniProt P06239).
# output 4.82 to 7.03 µM

# input Specify the recorded IC50 for COc1cc(Nc2ncnc(-n3c(NC4CCCc5ccccc54)nc4ccccc43)n2)cc(OC)c1OC (centres unmarked) [Compound 1043] , system: Lck (Homo sapiens, UniProt P06239).
# output 4.58 to 6.68 µM

====

- measurementTarget: Zap-70 (Homo sapiens)
- Construct: Kinases are expressed as either kinase domains or full length constructs; made in house
- Sequence (P43403 whole entry, species assumed, the tested form may be a part): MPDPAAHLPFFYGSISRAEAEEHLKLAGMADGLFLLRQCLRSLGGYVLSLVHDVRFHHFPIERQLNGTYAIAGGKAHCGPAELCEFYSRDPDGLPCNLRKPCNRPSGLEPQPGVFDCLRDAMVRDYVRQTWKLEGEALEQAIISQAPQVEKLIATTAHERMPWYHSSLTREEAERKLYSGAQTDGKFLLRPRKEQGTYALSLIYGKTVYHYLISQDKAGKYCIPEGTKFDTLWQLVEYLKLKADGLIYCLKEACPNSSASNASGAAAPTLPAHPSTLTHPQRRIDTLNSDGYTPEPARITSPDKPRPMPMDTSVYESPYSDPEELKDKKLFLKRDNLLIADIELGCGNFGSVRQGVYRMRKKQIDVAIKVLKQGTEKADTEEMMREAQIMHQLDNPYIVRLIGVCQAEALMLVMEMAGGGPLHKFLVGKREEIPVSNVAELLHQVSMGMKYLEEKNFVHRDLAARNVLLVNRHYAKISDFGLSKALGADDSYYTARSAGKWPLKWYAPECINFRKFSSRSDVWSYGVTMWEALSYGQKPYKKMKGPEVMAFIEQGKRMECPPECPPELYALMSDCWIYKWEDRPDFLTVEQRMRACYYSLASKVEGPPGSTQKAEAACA
- assayInfo: Kinase inhibition assay (33P transfer), Zap-70
- Format: biochemical
- details: read-out: Zap-1
pIC50: −log10 of the molar value.
quantityName: pIC50

# input Dear colleague, please send me the reported pIC50 for COc1ccc(Nc2ncnc(NCC(O)c3ccccc3)n2)cc1OC (stereo not drawn) when you can.
# output < 4.91

# input Dear colleague, please send me the reported pIC50 for O=c1[nH]c2ccccc2n1-c1ncnc(Nc2ccncn2)n1 when you can.
# output 4.83 to 4.94

# input Dear colleague, please send me the reported pIC50 for COc1ccc(Nc2ncnc(NCCCOC(C)C)n2)cc1OC when you can.
# output < 4.89

# input Dear colleague, please send me the reported pIC50 for COc1cc(Nc2ncnc(NC(=O)NCc3ccccc3)n2)cc(OC)c1OC when you can.
# output < 4.96

# input Dear colleague, please send me the reported pIC50 for COc1cc(Nc2ncnc(Nc3[nH]ncc3-c3cccc(Cl)c3)n2)cc(OC)c1OC when you can.
# output < 5.00

# input Dear colleague, please send me the reported pIC50 for COc1ccc(Nc2ncnc(NCCNC(C)=O)n2)cc1OC when you can.
# output < 4.87

# input Dear colleague, please send me the reported pIC50 for COc1cc(Nc2ncnc(Nc3ccc4c(cnn4Cc4ccccc4)c3)n2)cc(OC)c1OC when you can.
# output 5.14 to 5.30

# input Dear colleague, please send me the reported pIC50 for COc1cc(Nc2ncnc(N(C)c3cccc(Cl)c3)n2)cc(OC)c1OC when you can.
# output < 4.95

# input Dear colleague, please send me the reported pIC50 for COc1cc(Nc2ncnc(-n3c(N[C@@H](C)c4ccccc4)nc4ccccc43)n2)cc(OC)c1OC when you can.
# output < 5.04

====

- measurementTarget: c-Met (Homo sapiens)
- Construct: Kinases are expressed as either kinase domains or full length constructs; made in house
- Sequence (P08581 25-1390): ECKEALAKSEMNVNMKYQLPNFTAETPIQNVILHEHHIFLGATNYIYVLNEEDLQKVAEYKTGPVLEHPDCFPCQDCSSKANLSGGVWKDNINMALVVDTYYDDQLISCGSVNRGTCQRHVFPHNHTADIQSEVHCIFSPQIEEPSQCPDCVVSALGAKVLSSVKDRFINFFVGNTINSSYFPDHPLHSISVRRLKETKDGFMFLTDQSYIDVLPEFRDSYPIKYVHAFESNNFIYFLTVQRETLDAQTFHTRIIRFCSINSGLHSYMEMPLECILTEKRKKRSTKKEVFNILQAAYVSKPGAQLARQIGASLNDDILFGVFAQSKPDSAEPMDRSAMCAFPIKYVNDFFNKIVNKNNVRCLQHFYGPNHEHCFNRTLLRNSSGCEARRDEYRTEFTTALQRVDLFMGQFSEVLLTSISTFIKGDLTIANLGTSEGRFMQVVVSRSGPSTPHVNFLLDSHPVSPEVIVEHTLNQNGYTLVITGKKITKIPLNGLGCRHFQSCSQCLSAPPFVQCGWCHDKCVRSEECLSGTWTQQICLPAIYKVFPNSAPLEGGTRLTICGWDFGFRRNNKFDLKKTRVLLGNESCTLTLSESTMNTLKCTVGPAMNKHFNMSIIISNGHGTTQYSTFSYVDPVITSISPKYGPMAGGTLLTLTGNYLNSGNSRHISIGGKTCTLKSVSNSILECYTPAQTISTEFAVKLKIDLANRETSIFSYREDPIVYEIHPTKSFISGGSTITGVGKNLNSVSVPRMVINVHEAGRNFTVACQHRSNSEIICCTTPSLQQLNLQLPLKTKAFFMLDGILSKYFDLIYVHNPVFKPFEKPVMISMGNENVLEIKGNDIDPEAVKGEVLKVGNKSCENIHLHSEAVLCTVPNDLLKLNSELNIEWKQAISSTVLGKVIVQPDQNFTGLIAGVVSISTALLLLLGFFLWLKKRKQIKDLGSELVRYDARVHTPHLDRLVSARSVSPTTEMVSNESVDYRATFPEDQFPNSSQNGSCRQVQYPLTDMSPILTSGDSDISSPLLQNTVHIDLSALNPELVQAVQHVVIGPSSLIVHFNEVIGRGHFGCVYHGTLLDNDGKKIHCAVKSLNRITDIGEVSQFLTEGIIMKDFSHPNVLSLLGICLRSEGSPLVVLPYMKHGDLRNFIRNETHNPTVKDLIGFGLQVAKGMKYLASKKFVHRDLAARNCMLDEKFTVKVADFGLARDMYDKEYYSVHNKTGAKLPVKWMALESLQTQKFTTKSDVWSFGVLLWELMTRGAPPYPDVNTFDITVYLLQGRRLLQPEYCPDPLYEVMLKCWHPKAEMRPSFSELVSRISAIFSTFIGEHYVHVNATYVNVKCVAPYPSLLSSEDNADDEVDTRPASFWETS
- assayInfo: Kinase inhibition assay (33P transfer), c-Met
- Type: biochemical
- details: Table 2, kinase inhibition class; read-out: Met-1
quantityName: IC50

Consider the reported IC50 for these compounds:
Clc1ccccc1Nc1ncnc(-n2cccc2)n1: > 16.6 µM
COc1cc(Nc2ncnc(-c3ccsc3)n2)cc(OC)c1OC: > 13.1 µM
COc1cc(Nc2ncnc(-n3c(Nc4ccc5[nH]ncc5c4)nc4ccccc43)n2)cc(OC)c1OC: > 8.83 µM
COc1ccc(Nc2ncnc(Nc3ccc(N(C)C)cc3)n2)cc1OC: > 12.3 µM

# input Dear colleague, please send me the reported IC50 for COc1cc(OC)nc(Nc2ncnc(-n3c(=O)[nH]c4ccccc43)n2)n1 when you can.
# output > 12.3 µM

# input Dear colleague, please send me the reported IC50 for COc1ccc(Nc2ncnc(Nc3cc(-c4ccccc4)n[nH]3)n2)cc1OC when you can.
# output < 1.03 µM

# input Dear colleague, please send me the reported IC50 for OCCCNc1cc(-c2ncnc(Nc3cccc(OC(F)(F)C(F)F)c3)n2)ccn1 when you can.
# output > 10.3 µM

# input Dear colleague, please send me the reported IC50 for O=c1[nH]c2ccccc2n1-c1ncnc(Nc2cc(Cl)cc(Cl)c2)n1 when you can.
# output > 12.1 µM

# input Dear colleague, please send me the reported IC50 for COc1cc(Nc2ncnc(Nc3ccc(F)c(Cl)c3)n2)cc(OC)c1OC when you can.
# output > 11.1 µM

====

- measurementTarget: Kdr (Homo sapiens, UniProt P35968)
- Construct: Kinases are expressed as either kinase domains or full length constructs; made in house
- Sequence (P35968 20-1356, species assumed): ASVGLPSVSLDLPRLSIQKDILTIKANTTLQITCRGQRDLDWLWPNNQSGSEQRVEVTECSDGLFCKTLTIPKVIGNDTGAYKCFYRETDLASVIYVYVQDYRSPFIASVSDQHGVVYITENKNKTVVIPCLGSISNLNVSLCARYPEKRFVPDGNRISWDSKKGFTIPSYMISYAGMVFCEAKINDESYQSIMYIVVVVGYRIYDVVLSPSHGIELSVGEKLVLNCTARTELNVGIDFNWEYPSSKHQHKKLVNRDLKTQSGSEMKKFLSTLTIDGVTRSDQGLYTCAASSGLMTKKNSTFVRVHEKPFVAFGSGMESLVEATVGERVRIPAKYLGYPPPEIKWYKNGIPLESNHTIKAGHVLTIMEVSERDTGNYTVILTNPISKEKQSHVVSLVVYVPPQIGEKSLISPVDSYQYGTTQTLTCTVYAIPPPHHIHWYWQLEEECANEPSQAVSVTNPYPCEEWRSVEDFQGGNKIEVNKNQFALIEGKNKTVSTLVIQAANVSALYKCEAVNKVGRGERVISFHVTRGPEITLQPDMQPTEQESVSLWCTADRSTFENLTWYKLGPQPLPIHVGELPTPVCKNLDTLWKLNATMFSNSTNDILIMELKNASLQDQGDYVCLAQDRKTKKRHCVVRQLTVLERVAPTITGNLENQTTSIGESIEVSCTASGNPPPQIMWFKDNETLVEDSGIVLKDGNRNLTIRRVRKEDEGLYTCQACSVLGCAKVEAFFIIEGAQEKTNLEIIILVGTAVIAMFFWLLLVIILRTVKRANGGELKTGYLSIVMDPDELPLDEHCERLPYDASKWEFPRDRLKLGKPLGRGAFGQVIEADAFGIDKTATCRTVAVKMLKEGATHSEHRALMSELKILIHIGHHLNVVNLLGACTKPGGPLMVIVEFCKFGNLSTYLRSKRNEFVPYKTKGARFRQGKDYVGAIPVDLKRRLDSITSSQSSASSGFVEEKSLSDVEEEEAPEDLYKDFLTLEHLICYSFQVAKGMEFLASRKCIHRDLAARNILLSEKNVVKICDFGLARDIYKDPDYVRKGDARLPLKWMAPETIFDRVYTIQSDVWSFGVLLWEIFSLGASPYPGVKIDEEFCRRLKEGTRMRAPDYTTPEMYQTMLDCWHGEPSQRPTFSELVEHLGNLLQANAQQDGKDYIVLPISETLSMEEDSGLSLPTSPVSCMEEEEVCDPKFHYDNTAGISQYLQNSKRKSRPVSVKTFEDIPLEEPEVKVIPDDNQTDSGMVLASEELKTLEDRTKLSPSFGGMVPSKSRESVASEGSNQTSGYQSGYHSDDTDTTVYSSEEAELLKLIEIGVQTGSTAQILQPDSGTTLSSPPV
- assayInfo: Kinase inhibition assay (33P transfer), Kdr
- Type: biochemical
- details: Table 3, class symbols; read-out: KDR-1
Below: a set of entries, each annotated with reported IC50.

Consider the reported IC50 for these molecules:
Cc1ccc(Cl)cc1Nc1ncnc(N2c3ccc(F)cc3CCC2C)n1 (centres unmarked): 1.04 to 6.25 µM
CN(c1cccc(Cl)c1)c1ncnc(Nc2cccc(OC(F)(F)F)c2)n1: 6.06 to 8.84 µM

Shift focus to the following entry.
# input Dear colleague, please send me the reported IC50 for c1ccc(-c2cc(Nc3ncnc(Nc4cccc(-c5cnco5)c4)n3)[nH]n2)cc1 when you can.
# output 1.01 to 6.05 µM

====

- measurementTarget: PDGFRB (Homo sapiens, UniProt P09619)
- Construct: Kinases are expressed as either kinase domains or full length constructs; made in house
- assayInfo: Kinase inhibition assay (33P transfer), PDGFRB
- Format: biochemical
- details: read-out: PDGFRB-1
quantityName: IC50

Consider the reported IC50 for these compounds:
COc1cc(C)c(Nc2ncnc(Nc3cc(-c4ccc(C)cc4)n[nH]3)n2)cc1OC: > 10.8 µM
CN(c1ccc(F)c(Cl)c1)c1ncnc(Nc2cccc(Br)c2)n1: > 11 µM
NC(=O)Cc1cccc(Nc2ncnc(-n3c(NCc4ccccc4)nc4ccccc43)n2)c1: < 0.888 µM

Shift focus to the following entry.
# input Dear colleague, please send me the reported IC50 for COc1ccc(Nc2ncnc(N(C)[C@H](C)c3ccccc3)n2)cc1OC when you can.
# output > 12.3 µM

====

- measurementTarget: IGFR-1 (Homo sapiens)
- Construct: Kinases are expressed as either kinase domains or full length constructs; made in house
- Sequence (P08069 31-1367): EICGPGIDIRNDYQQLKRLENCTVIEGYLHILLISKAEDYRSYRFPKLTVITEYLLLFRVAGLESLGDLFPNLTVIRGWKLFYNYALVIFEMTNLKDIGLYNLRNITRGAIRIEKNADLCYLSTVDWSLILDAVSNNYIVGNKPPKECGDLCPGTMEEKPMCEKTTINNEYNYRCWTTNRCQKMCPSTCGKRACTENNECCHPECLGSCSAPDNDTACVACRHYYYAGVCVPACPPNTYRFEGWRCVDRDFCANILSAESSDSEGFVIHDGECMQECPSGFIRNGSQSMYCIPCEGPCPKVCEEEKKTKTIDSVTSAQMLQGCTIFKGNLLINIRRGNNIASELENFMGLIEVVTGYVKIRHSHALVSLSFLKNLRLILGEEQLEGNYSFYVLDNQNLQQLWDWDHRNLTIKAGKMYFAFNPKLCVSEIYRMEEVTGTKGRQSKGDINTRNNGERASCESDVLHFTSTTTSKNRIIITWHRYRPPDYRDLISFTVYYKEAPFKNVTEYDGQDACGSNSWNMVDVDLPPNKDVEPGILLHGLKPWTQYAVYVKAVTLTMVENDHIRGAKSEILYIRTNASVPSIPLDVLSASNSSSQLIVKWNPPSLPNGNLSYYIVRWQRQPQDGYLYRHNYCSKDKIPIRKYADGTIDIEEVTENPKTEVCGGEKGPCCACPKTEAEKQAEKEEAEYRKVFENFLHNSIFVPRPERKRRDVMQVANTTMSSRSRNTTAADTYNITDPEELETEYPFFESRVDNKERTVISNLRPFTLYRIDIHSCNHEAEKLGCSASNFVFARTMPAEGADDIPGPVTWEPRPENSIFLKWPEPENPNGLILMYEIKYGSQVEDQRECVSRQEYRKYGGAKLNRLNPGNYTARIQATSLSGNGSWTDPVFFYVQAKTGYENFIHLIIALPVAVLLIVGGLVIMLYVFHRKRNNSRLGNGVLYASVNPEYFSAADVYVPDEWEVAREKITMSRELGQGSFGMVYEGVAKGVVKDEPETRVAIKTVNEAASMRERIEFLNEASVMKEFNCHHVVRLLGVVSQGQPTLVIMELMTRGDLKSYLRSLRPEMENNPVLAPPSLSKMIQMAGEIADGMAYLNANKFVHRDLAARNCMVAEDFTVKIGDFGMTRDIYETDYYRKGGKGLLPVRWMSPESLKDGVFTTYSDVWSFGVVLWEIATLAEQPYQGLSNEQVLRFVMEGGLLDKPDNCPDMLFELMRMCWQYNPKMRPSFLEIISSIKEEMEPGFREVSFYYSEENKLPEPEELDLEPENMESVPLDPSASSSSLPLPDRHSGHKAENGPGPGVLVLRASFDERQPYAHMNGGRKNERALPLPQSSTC
- assayInfo: Kinase inhibition assay (33P transfer), IGFR-1
- Assay type: biochemical
- details: Table 2, kinase inhibition class
quantityName: IC50

COc1cc(Nc2ncnc(-n3ccc4c(OC)cccc43)n2)cc(OC)c1OC [Compound 238]: > 11 µM
COc1cc(Nc2ncnc(Nc3nc4ccccc4n3C)n2)cc(OC)c1OC [Compound 938]: 5.89 to 8.59 µM
COc1cc(Nc2ncnc(-n3ccc4cc(OCc5ccccc5)ccc43)n2)cc(OC)c1OC [Compound 200]: > 9.31 µM

Shift focus to the following entry.
# input Dear colleague, please send me the reported IC50 for COc1cc(Nc2ncnc(-c3ccnc(N4CCCCC4)c3)n2)cc(OC)c1OC [Compound 345] when you can.
# output 0.947 to 5.68 µM

====

- measurementTarget: Kdr (Homo sapiens, UniProt P35968)
- Construct: Kinases are expressed as either kinase domains or full length constructs; made in house
- assayInfo: Kinase inhibition assay (33P transfer), Kdr
- Format: biochemical
- details: read-out: KDR-1
quantityName: IC50

Consider the reported IC50 for these compounds:
O=c1[nH]c2ccccc2n1-c1ncnc(Nc2ccncn2)n1: 7.84 to 11.4 µM
COc1cc(Nc2ncnc(Nc3cc(OC)c(OC)c(OC)c3)n2)ccc1OCCN1CCOCC1: 4.68 to 6.83 µM
C=CCNC(=O)c1ccc(-c2cc(Nc3ncnc(Nc4cc(OC)c(OC)c(OC)c4)n3)[nH]n2)cc1: > 8.95 µM
COc1cc(Nc2ncnc(-n3c(N)nc4ccccc43)n2)cc(OC)c1: < 1.1 µM
O=c1[nH]c2ccccc2n1-c1ncnc(Nc2ccc3[nH]ncc3c2)n1: > 13.1 µM
CC(C)(C)c1cc(Nc2ncnc(Nc3ccc(CO)cc3)n2)[nH]n1: 1.18 to 7.07 µM
COc1cc(Nc2ncnc(-n3c(NCc4cccc(Cl)c4)nc4ccccc43)n2)cc(OC)c1OC: < 0.772 µM

# input Dear colleague, please send me the reported IC50 for COc1ccc(Nc2ncnc(N(C)c3cccc(Cl)c3)n2)cc1OC when you can.
# output 1.08 to 6.45 µM
